Every entry's value here was drawn from PubChem BioAssay (Tox21).

method_notes: qHTS RealTime-Glo MT Cell Viability Assay in HEK293 cells - 32 hour (AID 1224868); note: nearly all actives have a fitted effect of over 50% in size
condition_info: RealTime-Glo luminescence; series mostly up to 76.8 µM
Records with an inconclusive call do not appear. Active and inactive are the calls of the source. Calls come from the whole dose curve; as a rule, active = well fitted cell-killing curve with a large enough effect in the repeat runs; inconclusive = weak or mixed curves, or effect the other way; inactive = flat fitted curve, though single readings scatter.
Labels: active, inactive

compound | discrete_label
O=C1Nc2ccc(Cl)cc2[C@@](C#CC2CC2)(C(F)(F)F)O1 | active
O=C[C@H](O)[C@H](O)[C@H](O)CO | inactive
Cc1cncc(C)c1 | inactive
C=CC(C)(CCC=C(C)C)OC(=O)/C=C/c1ccccc1 (stereo unspecified) | inactive
CCCN(CCc1cccs1)[C@H]1CCc2c(O)cccc2C1 | active
C/C=C/C(=O)Oc1c(CCCCCC(C)C)cc([N+](=O)[O-])cc1[N+](=O)[O-] | active

----------
method_notes: qHTS assay to identify small molecule antagonists of the sonic hedgehog signaling (Shh) pathway - cell viability counter screen (AID 1259367); note: nearly all actives have a fitted effect of over 55% in size
condition_info: NIH/3T3 Gli1-Luc viability, CellTiter-Fluor, 24 h; series mostly up to 92.4 µM
Description: National Center for Advancing Translational Sciences [NCATS] NIH Chemical Genomics Center [NCGC] U.S. Environmental Protection Agency [EPA] National Institutes of Environmental Health Sciences [NIEHS] National Toxicology Program [NTP] U.S. Food and Drug Administration [FDA] The sonic hedgehog (Shh) pathway is essential for normal embryonic development. Dysregulation of the Shh pathway can cause severe developmental defects in organs. […]
Inconclusive results are not listed. The source made the active and inactive calls. Calls come from the whole dose curve; as a rule, active = well fitted cell-killing curve with a large enough effect in the repeat runs; inconclusive = weak or mixed curves, or effect the other way; inactive = no such curve, though single readings can be large or run the other way.
Outcome codes: t = active, f = inactive

molecule | discrete_label
Nc1ncnc2c1ncn2[C@@H]1O[C@H](COP(=O)(O)O)[C@@H](O)[C@H]1O | f
CCCCCCCCCCCCCCNCCO | f
OCCCc1cccnc1 | f
COc1cc(C(=O)NS(=O)(=O)c2ccccc2C)ccc1Cc1cn(C)c2ccc(NC(=O)OC3CCCC3)cc12 | f
CCCCOC(=O)C(C)CC (centres undefined) | f
CCOC(=O)C1=C(C)NC(C)=C(C(=O)OCC)C1c1ccccc1/C=C/C(=O)OC(C)(C)C | t
[O]=[Zr] | f
CS(C)(=O)=O | f
CO[Si](CCCNCCNCCN)(OC)OC | f
CCCCCCCC(=O)OCC | f
CCCCCCCOC(=O)c1ccc(O)cc1 | f
COc1ccccc1C=O | f
S=P(N1CC1)(N1CC1)N1CC1 | t
Clc1ccccc1CN1CCc2sccc2C1 | f

----------
method_notes: qHTS assay to identify small molecule antagonists of the estrogen receptor alpha (ER-alpha) signaling pathway using the BG1 cell line in the presence of 0.1 nM 17-beta-estradiol - cell viability counter screen (AID 1259241); note: nearly all actives have a fitted effect of over 40% in size
condition_info: VM7Luc4E2 (BG1) viability, CellTiter-Fluor protease, 22 h, 0.1 nM estradiol agonist added; series mostly up to 92.4 µM
Excerpt: National Center for Advancing Translational Sciences [NCATS] NIH Chemical Genomics Center [NCGC] U.S. Environmental Protection Agency [EPA] National Institutes of Environmental Health Sciences [NIEHS] National Toxicology Program [NTP] U.S. Food and Drug Administration [FDA] Estrogen receptor (ER), a member of the nuclear hormone receptor plays an important role in development, metabolic homeostasis and reproduction. […]
Results filed as inconclusive are left out. Activity calls are given as the source filed them. Calls follow the shape of the dose curve; as a rule, active = well fitted cell-killing curve with a large enough effect in the repeat runs; inconclusive = weak or mixed curves, or effect the other way; inactive = flat fitted curve, though single readings scatter.
Outcome codes: active, inactive

molecule | discrete_label
O=C1c2c(O)ccc([N+](=O)[O-])c2C(=O)c2c([N+](=O)[O-])ccc(O)c21 | active
CS(C)(=O)=O | inactive
c1cc[nH]c1 | inactive
CCCCC(CC)COC(=O)c1ccc(O)cc1 (centres undefined) | inactive
CCCCCCC(C)OC(=O)COc1nc(F)c(Cl)c(N)c1Cl (centres undefined) | inactive
OCCCS | inactive
CCCCOCC | inactive
CCCSS/C(CCO)=C(\C)N(C=O)Cc1cnc(C)nc1N | inactive
Oc1ccc(-c2ccccc2)c(Cl)c1 | inactive
CCN(CC)CCCN(c1ccccc1)C1Cc2ccccc2C1 | inactive
CCC(C)c1cc([N+](=O)[O-])cc([N+](=O)[O-])c1OC(=O)OC(C)C (centres undefined) | active
CC(=O)c1ccccc1N | inactive
CC(C)N=C(N)/N=C(\N)Nc1ccc(Cl)cc1 | inactive
C=C(C)CCCC | inactive
